assay: Solubility of clonazepam in neat solvents; details: triacetin (neat solvent), organic solvent or mixture
measured_attribute: solubility (µg/mL)
Value expressed in µg/mL; do not type the unit.

Per the record, O=C1CN=C(c2ccccc2Cl)c2cc([N+](=O)[O-])ccc2N1 has solubility of 5800

###

Reported solubility at 2 h values for the following compounds.
experiment: Saturated solubility in receiver fluid systems (HPLC); details: 37 °C, pH 6, aqueous buffer, thermodynamic from solid, buffer pH 6, 37° C.
Value expressed in µg/mL; do not type the unit.

> print(dat)
                                   compound   unit  observed.value
1  O=C1CN=C(c2ccccc2Cl)c2cc([N+](=O)[O-])ccc2N1 [Clonazepam]  µg/mL            13.7

Now look at this entry.
Per the record, O=C1Nc2ccc(Cl)cc2C(c2ccccc2Cl)=NC1O (centres unmarked) [Lorazepam] has solubility at 2 h of 78.5
